molecular target: PD-1 (UniProt Q15116 25-167, limits assumed); test: ELISA; S9 on the Cys
Sequence (Q15116 25-167 limits assumed): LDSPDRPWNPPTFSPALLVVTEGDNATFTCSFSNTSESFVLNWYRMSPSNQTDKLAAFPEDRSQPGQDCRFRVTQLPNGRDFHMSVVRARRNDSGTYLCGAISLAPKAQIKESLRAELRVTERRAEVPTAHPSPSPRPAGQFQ
Each item that follows carries a reported binding activity, % of wild type.

binder	binding activity, % of wild type
anti-PD-1 antibody 2 HC Gly42Cys (antibody, human IgG4 S228P, kappa, V domains shown, arm on Cys42 as named in each row) VH: QVQLVESGGGVVQPGRSLRLDCKASGITFSNSGMHWVRQAPCKGLEWVAVIWYDGSKRYYADSVKGRFTISRDNSKNTLFLQMNSLRAEDTAVYYCATNDDYWGQGTLVTVSS VL: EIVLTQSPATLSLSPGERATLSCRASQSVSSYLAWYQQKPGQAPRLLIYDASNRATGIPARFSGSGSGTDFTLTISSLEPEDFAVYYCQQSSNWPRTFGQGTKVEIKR	63.6%
anti-PD-1 antibody 2 HC Gly26Cys (antibody, human IgG4 S228P, kappa, V domains shown, arm on Cys26 as named in each row) VH: QVQLVESGGGVVQPGRSLRLDCKASCITFSNSGMHWVRQAPGKGLEWVAVIWYDGSKRYYADSVKGRFTISRDNSKNTLFLQMNSLRAEDTAVYYCATNDDYWGQGTLVTVSS VL: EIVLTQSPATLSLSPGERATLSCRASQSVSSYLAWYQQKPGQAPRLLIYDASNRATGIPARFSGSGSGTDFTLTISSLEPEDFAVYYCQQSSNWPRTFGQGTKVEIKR	31.8%

**Q:** Can you look up the measured binding activity, % of wild type of anti-PD-1 antibody 2 HC Thr69Cys (antibody, human IgG4 S228P, kappa, V domains shown, arm on Cys69 as named in each row) VH: QVQLVESGGGVVQPGRSLRLDCKASGITFSNSGMHWVRQAPGKGLEWVAVIWYDGSKRYYADSVKGRFCISRDNSKNTLFLQMNSLRAEDTAVYYCATNDDYWGQGTLVTVSS VL: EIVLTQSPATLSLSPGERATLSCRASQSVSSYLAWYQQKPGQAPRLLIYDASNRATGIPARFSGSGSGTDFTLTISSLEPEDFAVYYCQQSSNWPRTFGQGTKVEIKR for me?
**A:** 78.6%

**Q:** Need binding activity, % of wild type, item anti-PD-1 antibody 2 HC Thr98Cys (antibody, human IgG4 S228P, kappa, V domains shown, arm on Cys98 as named in each row) VH: QVQLVESGGGVVQPGRSLRLDCKASGITFSNSGMHWVRQAPGKGLEWVAVIWYDGSKRYYADSVKGRFTISRDNSKNTLFLQMNSLRAEDTAVYYCACNDDYWGQGTLVTVSS VL: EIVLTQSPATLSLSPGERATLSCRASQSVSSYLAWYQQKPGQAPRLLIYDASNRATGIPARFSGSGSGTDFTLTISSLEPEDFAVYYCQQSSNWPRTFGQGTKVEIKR
**A:** 59.9%

**Q:** Requested field: binding activity, % of wild type. Item: anti-PD-1 antibody 2 HC Gly9Cys (antibody, human IgG4 S228P, kappa, V domains shown, arm on Cys9 as named in each row) VH: QVQLVESGCGVVQPGRSLRLDCKASGITFSNSGMHWVRQAPGKGLEWVAVIWYDGSKRYYADSVKGRFTISRDNSKNTLFLQMNSLRAEDTAVYYCATNDDYWGQGTLVTVSS VL: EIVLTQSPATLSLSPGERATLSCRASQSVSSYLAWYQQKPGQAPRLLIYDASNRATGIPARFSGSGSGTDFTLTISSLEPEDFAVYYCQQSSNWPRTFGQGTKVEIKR
**A:** 87.4%
